- Assay Remarks: blockers of RIG-like receptor reporter activation – cell-based, Sendai virus stimulus, luciferase, 10K MLSCN set, TLR/RLR signaling modifier project, primary screen (AID 602276);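 also: firefly luciferase from ISG56 promoter only with Renilla not read in this screen; 0% = Sendai virus plus DMSO and 100% = medium plus DMSO without virus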
- Measurement Parameters: HEK293 RL24 IRF3 luciferase reporter, at 10 µM, hits give high values
Parameter: inhibition (%)
Provide the reading as a plain figure in %.

Query: What value of inhibition has been recorded for this entry: `CN1CCc2c(sc3c2c(=O)n(-c2ccccc2)c2nnc(SCc4ccc(F)cc4)n32)C1`
Reply: 4.98

Query: What value of inhibition has been recorded for this entry: Cc1cccc(C)c1NC(=O)CS(=O)CC(=O)NC1CCCc2ccccc21 (stereo unspecified)
Reply: 12.3

Query: What value of inhibition has been recorded for this entry: `Cc1onc(-c2c(Cl)cccc2Cl)c1C(=O)N1CCc2ccccc21`
Reply: 23.7

Query: What value of inhibition has been recorded for this entry: CCOC(=O)C1CCCN(CC(=O)NC2CC2)C1 (stereo unspecified)
Reply: 13.3

Query: What value of inhibition has been recorded for this entry: `O=S(=O)(NCc1cn2ccsc2n1)c1ccc2c(c1)OCCO2`
Reply: 5.63

Query: What value of inhibition has been recorded for this entry: `COc1cccc(/C=N/n2cnnc2)c1OCc1ccccc1`
Reply: 20.5

Query: What value of inhibition has been recorded for this entry: `Cn1c(=O)[nH]c(=O)c2c1nc(Br)n2Cc1ccccc1F`
Reply: 9.21

Query: What value of inhibition has been recorded for this entry: `O=C(NCCCCNC(=O)c1cccnc1)c1cccnc1`
Reply: 13.9

Query: What value of inhibition has been recorded for this entry: `CC(=O)NCC(=O)N(Cc1ccco1)C1(C(=O)NC2CCCCC2)CCCCC1`
Reply: 9.16

Query: What value of inhibition has been recorded for this entry: `CCOc1cc(-c2nc(-c3ccccc3OC)no2)cc(OCC)c1OCC`
Reply: 11.5

Query: What value of inhibition has been recorded for this entry: `CCOc1ccc(OCCCCN(C)C)cc1`
Reply: 8.3
